meta.source: patent US20020137929A1

Listing: Preemergence herbicidal rating TRZAWR of selected molecules
# System: TRZAWR (Wheat, Winter, cv Riband)
# test-description: Preemergence herbicidal evaluation
# Assay type: in vivo, Triticum aestivum
# measurement-parameters: 0.0625 kg/ha, rated 4-5 weeks after treatment
# output: bare number, no unit

# molecule, Preemergence herbicidal rating TRZAWR
rows = [
    ("C=CCN1C(=O)C(CC(=O)NO)SC1=Nc1cc(-n2c(=O)cc(C(F)(F)F)n(C)c2=O)c(F)cc1Cl (stereo not shown) [Compound 161]", 1.0),
    ("Cn1c(C(F)(F)F)cc(=O)n(-c2cc(N=C3SCC(=O)N3CC(F)(F)F)c(Cl)cc2F)c1=O [Compound 163]", 3.0),
    ("CN1C(=O)C(CC(=O)NO)SC1=Nc1cc(-n2c(=O)cc(C(F)(F)F)n(C)c2=O)c(F)cc1Cl (stereo not shown) [Compound 162]", 7.0),
]

### Prompt Observed Preemergence herbicidal rating TRZAWR on TRZAWR (Wheat, Winter, cv Riband) for CCCN1C(=O)CSC1=Nc1cc(-n2c(=O)cc(C(F)(F)F)n(C)c2=O)c(F)cc1Cl [Compound 171] , please.
### Response 6.0
